Parameter: pEC50. Scope: all listed entries.
- assay system: T1, human CD3 (human, UniProt P07766 23-207; P04234 22-171; P09693 23-182)
- T1 construct: whole, on cells; also called hCD3; CD3 on Jurkat cells
- T1 sequence (P07766 23-207, chain 1 of 3): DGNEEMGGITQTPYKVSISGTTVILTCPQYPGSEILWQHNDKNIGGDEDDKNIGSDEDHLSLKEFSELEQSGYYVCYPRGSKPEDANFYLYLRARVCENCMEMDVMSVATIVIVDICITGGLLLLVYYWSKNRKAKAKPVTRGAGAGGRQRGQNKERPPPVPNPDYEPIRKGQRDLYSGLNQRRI
- T1 sequence (P04234 22-171, chain 2 of 3): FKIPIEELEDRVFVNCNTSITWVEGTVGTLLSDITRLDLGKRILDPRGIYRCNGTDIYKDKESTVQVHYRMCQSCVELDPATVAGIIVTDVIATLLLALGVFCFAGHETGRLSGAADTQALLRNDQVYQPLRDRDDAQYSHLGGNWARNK
- T1 sequence (P09693 23-182, chain 3 of 3): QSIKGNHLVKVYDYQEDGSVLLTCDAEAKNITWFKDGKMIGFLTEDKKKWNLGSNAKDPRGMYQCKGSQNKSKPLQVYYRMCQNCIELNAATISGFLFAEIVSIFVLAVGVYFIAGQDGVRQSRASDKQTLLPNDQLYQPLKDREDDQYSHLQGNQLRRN
- test description: FACS on Jurkat cells
pEC50: −log10 of the molar value.
measurement kind: pEC50

binder="hu40E9-L3H4 (antibody, V domains shown, humanized 40-C12-C10-E9) VH: EVQLVQSGAEVKKPGSSVKVSCKASGYTFSSYVIHWVRQAPGQGLEWIGYINPYNDVIKYNEKFKGRATLTSDKSTSTAYMELSSLRSEDTAVYYCARDSYYSYDGFAYWGQGTLVTVSS VL: EIVLTQSPDFQSVTPKEKVTITCSASSSVSYMHWYQQKPDQSPKRWIYDTSKLASGVPSRFSGSGSGTDYTLTINSLEAEDAATYYCQQWSSNPPTFGGGTKVEIK" measurement_kind=pEC50 numeric_readout=9.31
binder="hu40E9-L2H3-N93R.L (antibody, V domains shown) VH: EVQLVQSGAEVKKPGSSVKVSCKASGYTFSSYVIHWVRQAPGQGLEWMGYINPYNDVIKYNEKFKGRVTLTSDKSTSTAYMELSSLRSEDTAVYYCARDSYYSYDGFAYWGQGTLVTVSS VL: EIVLTQSPDFQSVTPKEKVTITCSASSSVSYMHWYQQKPDQSPKRLIYDTSKLASGVPSRFSGSGSGTDFTLTINSLEAEDAATYYCQQWSSRPPTFGGGTKVEIK" measurement_kind=pEC50 numeric_readout=9.20
binder="hu40E9-L2H3-N55S.H (antibody, V domains shown) VH: EVQLVQSGAEVKKPGSSVKVSCKASGYTFSSYVIHWVRQAPGQGLEWMGYINPYSDVIKYNEKFKGRVTLTSDKSTSTAYMELSSLRSEDTAVYYCARDSYYSYDGFAYWGQGTLVTVSS VL: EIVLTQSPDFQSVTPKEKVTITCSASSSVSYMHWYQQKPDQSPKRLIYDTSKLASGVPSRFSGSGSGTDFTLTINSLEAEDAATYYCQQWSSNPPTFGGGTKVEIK" measurement_kind=pEC50 numeric_readout=9.29
binder="hu40E9-L2H3 (antibody, V domains shown, humanized 40-C12-C10-E9) VH: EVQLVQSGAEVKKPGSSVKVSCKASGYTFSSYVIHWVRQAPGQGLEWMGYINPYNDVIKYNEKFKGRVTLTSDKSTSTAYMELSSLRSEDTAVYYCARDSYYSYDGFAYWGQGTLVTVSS VL: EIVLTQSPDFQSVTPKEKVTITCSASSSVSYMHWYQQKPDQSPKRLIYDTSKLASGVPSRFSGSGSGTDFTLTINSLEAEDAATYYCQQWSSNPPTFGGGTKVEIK" measurement_kind=pEC50 numeric_readout=9.19
binder="hu40E9-L2H3-D105E.H (antibody, V domains shown) VH: EVQLVQSGAEVKKPGSSVKVSCKASGYTFSSYVIHWVRQAPGQGLEWMGYINPYNDVIKYNEKFKGRVTLTSDKSTSTAYMELSSLRSEDTAVYYCARDSYYSYEGFAYWGQGTLVTVSS VL: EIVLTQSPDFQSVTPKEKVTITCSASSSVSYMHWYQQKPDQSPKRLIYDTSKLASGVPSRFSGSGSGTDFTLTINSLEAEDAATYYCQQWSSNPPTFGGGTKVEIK" measurement_kind=pEC50 numeric_readout=8.94
